- system-name: UniProt P81908
- Sequence (P81908 whole entry): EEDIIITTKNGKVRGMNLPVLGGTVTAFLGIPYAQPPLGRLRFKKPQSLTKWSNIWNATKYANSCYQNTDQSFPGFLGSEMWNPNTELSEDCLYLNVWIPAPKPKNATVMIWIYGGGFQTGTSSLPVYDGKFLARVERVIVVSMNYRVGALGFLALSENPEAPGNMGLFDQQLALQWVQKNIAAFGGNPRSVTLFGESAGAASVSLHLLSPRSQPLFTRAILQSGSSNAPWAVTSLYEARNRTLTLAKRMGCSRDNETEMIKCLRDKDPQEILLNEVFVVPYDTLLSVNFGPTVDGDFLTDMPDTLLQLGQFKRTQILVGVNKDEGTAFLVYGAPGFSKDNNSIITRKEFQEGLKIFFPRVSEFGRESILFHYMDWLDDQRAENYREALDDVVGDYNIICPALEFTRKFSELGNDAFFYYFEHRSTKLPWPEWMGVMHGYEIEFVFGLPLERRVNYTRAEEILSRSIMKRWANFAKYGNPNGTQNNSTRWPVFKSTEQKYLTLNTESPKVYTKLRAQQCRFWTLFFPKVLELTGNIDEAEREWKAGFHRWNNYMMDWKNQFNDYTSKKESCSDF
- procedure-details: Inhibition of equine serum BChE at 50 nM using acetylthiocholine iodide as substrate preincubated for 60 mins followed by substrate addition measured for 5 mins by Ellman's method
In this section, each of the compounds is paired with its reported inhibition.
Write the answer as a number in %, unit excluded.

// solved cases for inhibition follow
CCN(C)C(=O)Oc1cccc(CCNCc2ccccc2O)c1 ... 34.5
CCC(CC)CNc1ccc(O)c(CNCCc2cccc(OC(=O)N(C)CC)c2)c1 ... 14.2
CCN(C)C(=O)Oc1cccc(CCNC(=O)c2cccnc2O)c1 ... 53.7
CCN(C)C(=O)Oc1cccc([C@H](C)N(C)C)c1 ... 54.7
CCN(C)C(=O)Oc1cccc(CNC(=O)c2cccnc2O)c1 ... 46.5

Suppose we examine the compound CCN(C)C(=O)Oc1cccc(NC(=O)c2cccnc2O)c1 ; what inhibition value has been reported?
73.6

Suppose we examine the compound CCC(CC)CNc1ccc(O)c(CNc2cccc(OC(=O)N(C)CC)c2)c1 ; what inhibition value has been reported?
64.2

Suppose we examine the compound CCN(C)C(=O)Oc1cccc(NCc2ccccc2O)c1 ; what inhibition value has been reported?
38.5

Suppose we examine the compound CCN(C)C(=O)Oc1cccc(NCc2ccccn2)c1 ; what inhibition value has been reported?
58.9

Suppose we examine the compound CCN(C)C(=O)Oc1cccc(CNCc2ccccc2O)c1 ; what inhibition value has been reported?
30.5

---

- procedure-details: Cytotoxicity against mouse HT22 cells assessed as cell viability at 100 uM after 24 hrs by MTT assay relative to control
- Format: cell-based, HT-22
- condition-parameters: read-out: Activity
In this section, each of the compounds is paired with its reported viability at 24 h, 100 µM.
Write the answer as a number in %, unit excluded.

Suppose we examine the compound CCN(C)C(=O)Oc1cccc(CNCc2ccccc2O)c1 ; what viability at 24 h, 100 µM value has been reported?
90.3

Suppose we examine the compound CCN(C)C(=O)Oc1cccc(CNC(=O)c2cccnc2O)c1 ; what viability at 24 h, 100 µM value has been reported?
82.5

---

- procedure-details: Cytotoxicity against mouse HT22 cells assessed as cell viability at 30 uM after 24 hrs by MTT assay relative to control
- Assay type: cell-based, HT-22
- condition-parameters: read-out: Activity
In this section, each of the compounds is paired with its reported viability at 24 h, 30 µM.
Please answer using the number first and the unit second.

CCN(C)C(=O)Oc1cccc(CCNC(=O)c2cccnc2O)c1 ... 106%
CCN(C)C(=O)Oc1cccc(CNC(=O)c2cccnc2O)c1 ... 101%
CCN(C)C(=O)Nc1cccc(NC(=O)c2cccnc2O)c1 ... 97.2%

Suppose we examine the compound CCC(CC)CNc1ccc(O)c(CNc2cccc(OC(=O)N(C)CC)c2)c1 ; what viability at 24 h, 30 µM value has been reported?
85.8%

Suppose we examine the compound CCN(C)C(=O)Oc1cccc(CNCc2ccccc2O)c1 ; what viability at 24 h, 30 µM value has been reported?
96.6%

Suppose we examine the compound CCN(C)C(=O)Oc1cccc(NCc2ccccc2O)c1 ; what viability at 24 h, 30 µM value has been reported?
103%

Suppose we examine the compound CCN(C)C(=O)Oc1cccc(NC(=O)c2cccnc2O)c1 ; what viability at 24 h, 30 µM value has been reported?
102%

Suppose we examine the compound CCN(C)C(=O)Oc1cccc(NCc2ccccn2)c1 ; what viability at 24 h, 30 µM value has been reported?
91.3%

---

- system-name: Acetylcholinesterase (Electrophorus electricus)
- procedure-details: Inhibition of electric eel AChE at 50 nM using acetylthiocholine iodide as substrate preincubated for 60 mins followed by substrate addition measured for 5 mins by Ellman's method
In this section, each of the compounds is paired with its reported inhibition.
Write the answer as a number in %, unit excluded.

Suppose we examine the compound CCC(CC)CNc1ccc(O)c(CNCCc2cccc(OC(=O)N(C)CC)c2)c1 ; what inhibition value has been reported?
3.36

Suppose we examine the compound CCC(CC)CNc1ccc(O)c(CNc2cccc(OC(=O)N(C)CC)c2)c1 ; what inhibition value has been reported?
9.01

Suppose we examine the compound CCN(C)C(=O)Oc1cccc(CNC(=O)c2cccnc2O)c1 ; what inhibition value has been reported?
7.59

Suppose we examine the compound CCN(C)C(=O)Oc1cccc(NCc2ccccn2)c1 ; what inhibition value has been reported?
8.51

---

- procedure-details: Antioxidant activity assessed as DPPH free radical scavenging activity after 30 mins incubation in dark by UV-Visible spectrophotometric analysis
- Format: functional
In this section, each of the compounds is paired with its reported IC50.
Write the answer as a number in µM, unit excluded.

Cc1c(C)c2c(c(C)c1O)CCC(C)(C(=O)O)O2 (stereo not drawn) ... 23.5
CCC(CC)CNc1ccc(O)c(CNc2cccc(OC(=O)N(C)CC)c2)c1 ... 26.5

Shifting focus to the compound that follows.
Suppose we examine the compound CCC(CC)CNc1ccc(O)c(CNCCc2cccc(OC(=O)N(C)CC)c2)c1 ; what IC50 value has been reported?
28.7

---

- system-name: UniProtKB O42275
- Sequence (O42275 24-633 limits assumed): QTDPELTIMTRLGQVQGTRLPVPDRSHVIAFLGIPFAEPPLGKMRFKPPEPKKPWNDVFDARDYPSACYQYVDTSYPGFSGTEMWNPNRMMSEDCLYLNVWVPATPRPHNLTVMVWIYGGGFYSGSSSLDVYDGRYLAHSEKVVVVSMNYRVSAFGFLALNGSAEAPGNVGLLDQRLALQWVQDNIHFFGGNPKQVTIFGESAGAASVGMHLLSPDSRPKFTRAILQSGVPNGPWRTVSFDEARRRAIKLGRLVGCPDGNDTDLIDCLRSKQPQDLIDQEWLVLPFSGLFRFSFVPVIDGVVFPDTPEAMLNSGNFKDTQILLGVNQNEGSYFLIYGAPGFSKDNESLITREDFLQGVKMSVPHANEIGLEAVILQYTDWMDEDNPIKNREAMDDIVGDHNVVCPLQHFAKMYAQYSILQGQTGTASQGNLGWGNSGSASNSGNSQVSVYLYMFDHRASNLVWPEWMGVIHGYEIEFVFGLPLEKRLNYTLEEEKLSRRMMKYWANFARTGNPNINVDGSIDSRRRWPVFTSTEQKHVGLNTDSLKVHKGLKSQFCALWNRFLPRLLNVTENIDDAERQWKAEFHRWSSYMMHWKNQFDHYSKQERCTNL
- procedure-details: Inhibition of electric eel AChE at 50 nM using acetylthiocholine iodide as substrate preincubated for 60 mins followed by substrate addition measured for 5 mins by Ellman's method
In this section, each of the compounds is paired with its reported inhibition.
Write the answer as a number in %, unit excluded.

// solved cases for inhibition follow
CCN(C)C(=O)Oc1cccc(CCNCc2ccccc2O)c1 ... 3.58
CCN(C)C(=O)Oc1cccc(CCNC(=O)c2cccnc2O)c1 ... 5.43
CCN(C)C(=O)Oc1cccc(CNCc2ccccc2O)c1 ... 4.06

Suppose we examine the compound CCN(C)C(=O)Oc1cccc([C@H](C)N(C)C)c1 ; what inhibition value has been reported?
2.59

Suppose we examine the compound CCN(C)C(=O)Oc1cccc(NCc2ccccc2O)c1 ; what inhibition value has been reported?
8.13

Suppose we examine the compound CCN(C)C(=O)Oc1cccc(NC(=O)c2cccnc2O)c1 ; what inhibition value has been reported?
1.87

---

- procedure-details: Cytotoxicity against mouse HT22 cells assessed as cell viability at 100 uM after 24 hrs by MTT assay relative to control
- Type: cell-based, HT-22
- condition-parameters: read-out: Activity
Define the label as yes when viability at 24 h, 100 µM is strictly less than 80% and as no in all remaining cases.

Examples from the recorded data:
CCN(C)C(=O)Oc1cccc(CCNC(=O)c2cccnc2O)c1 ... no
CCC(CC)CNc1ccc(O)c(CNc2cccc(OC(=O)N(C)CC)c2)c1 ... yes

Lab log: compare recorded viability at 24 h, 100 µM with 80%; is it strictly lower for CCN(C)C(=O)Oc1cccc(NC(=O)c2cccnc2O)c1 ?
no

Lab log: compare recorded viability at 24 h, 100 µM with 80%; is it strictly lower for CCN(C)C(=O)Nc1cccc(NC(=O)c2cccnc2O)c1 ?
no
